measurement.target: Menin (Homo sapiens)
Sequence (O00255 whole entry): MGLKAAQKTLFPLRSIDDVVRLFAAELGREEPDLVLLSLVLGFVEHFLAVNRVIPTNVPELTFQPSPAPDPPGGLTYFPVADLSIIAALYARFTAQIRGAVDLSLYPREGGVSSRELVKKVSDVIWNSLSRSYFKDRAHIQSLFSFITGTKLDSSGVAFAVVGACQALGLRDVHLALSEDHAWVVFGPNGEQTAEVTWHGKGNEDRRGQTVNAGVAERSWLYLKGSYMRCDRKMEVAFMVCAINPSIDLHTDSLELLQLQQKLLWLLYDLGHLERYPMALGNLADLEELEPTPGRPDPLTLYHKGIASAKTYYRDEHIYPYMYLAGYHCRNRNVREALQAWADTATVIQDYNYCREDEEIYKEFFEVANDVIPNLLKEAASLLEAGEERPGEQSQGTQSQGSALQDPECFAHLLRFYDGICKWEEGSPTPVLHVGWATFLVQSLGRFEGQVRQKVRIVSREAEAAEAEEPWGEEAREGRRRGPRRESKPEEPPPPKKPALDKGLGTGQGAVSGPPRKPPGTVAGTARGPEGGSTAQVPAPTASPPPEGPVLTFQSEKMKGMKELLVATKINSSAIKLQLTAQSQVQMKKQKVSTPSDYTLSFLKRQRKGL
pIC50: −log10 of the molar value.
# pIC50 listing for each entry below
assay.metric: pIC50

smiles.code	measurement.target	value.observed
C=C1C[C@H]2CC[C@@H]1N[C@@H]2C(=O)N1CCC2(CC1)CN(c1ncncc1Oc1ccc(F)cc1C(=O)N(C(C)C)C(C)C)C2	Menin (Homo sapiens)	8.10
C=C1C[C@H]2CC[C@@H]1N[C@@H]2C(=O)N1CC2(C1)CN(c1ncncc1Oc1ccc(F)cc1C(=O)N(C(C)C)C(C)C)C2	Menin (Homo sapiens)	8.21
